Assay: Ratio of drug level in brain to blood in rat at 10 mg/kg, po
Format: ADME, organism-based
Set-up: dose 10 mg/kg, route oral
quantity_kind: Kp
Could you respond with only the numeric value?

In [3]: df
Out[3]:
                        structure_as_smiles  quantity_kind  assay_value
0  CN(C(=O)Cn1c(=O)oc2ccc(-c3cccnc3)cc21)c1ccc(C(F)(F)F)cc1.Cl             Kp          1.2

Ask: Which value of Kp has been reported for CN(C(=O)Cn1c(=O)oc2ccc(-c3ccc(OC(F)(F)F)cc3)cc21)c1cccnc1.Cl in the records?
Reply: 1.3

* * *

Assay: Solubility of the compound at pH 2.5 by HPLC analysis
Assay type: physicochemical
Conditions: buffer
Recorded log10 of solubility by entry
Give log10 of solubility, with solubility taken in µg/mL.

Ask: Which value of log10 of solubility has been reported for CCN(C(=O)Cn1c(=O)oc2ccc(-c3ccncc3)cc21)c1ccccc1 in the records?
Reply: 2.93

Ask: Query CN(C(=O)Cn1c(=O)oc2ccc(-c3ccccc3)cc21)c1cccnc1 next
Reply: 2.26

Ask: Query CN(C(=O)Cn1c(=O)oc2ccc(-c3ccccc3)cc21)c1ccccc1 next
Reply: 0.00

Ask: Query CN(C(=O)Cn1c(=O)oc2ccc(-c3ccccc3)cc21)c1ccccn1 next
Reply: 0.48

Ask: Query CN(C(=O)Cn1c(=O)oc2ccc(-c3ccc(OC(F)(F)F)cc3)cc21)c1cccnc1 next
Reply: 0.60

Ask: Query COc1ccc(N(C)C(=O)Cn2c(=O)oc3ccc(-c4ccncc4)cc32)cc1 next
Reply: 2.11

Ask: Query CN(C(=O)Cn1c(=O)oc2ccc(-c3cccnc3)cc21)c1ccc(C(F)(F)F)cc1 next
Reply: 2.62

Ask: Query CN(C(=O)Cn1c(=O)oc2ccc(-c3ccncc3)cc21)c1ccccc1 next
Reply: 2.86

* * *

Experiment: Solubility of the compound at pH 6.8
Type: physicochemical
Conditions: buffer
Recorded solubility by entry
Please state the value followed by its unit.

>>> df
                        structure_as_smiles  quantity_kind  assay_value
0  CN(C(=O)Cn1c(=O)oc2ccc(-c3ccc(OC(F)(F)F)cc3)cc21)c1cccnc1     solubility     20 µg/mL

Attention now turns to another entry.
Ask: Which value of solubility has been reported for CN(C(=O)Cn1c(=O)oc2ccc(-c3ccc(OC(F)(F)F)cc3)cc21)c1cccnc1.Cl in the records?
Reply: 23 µg/mL

* * *

Target: Translocator protein (Homo sapiens, UniProt P30536)
Sequence (P30536 whole entry): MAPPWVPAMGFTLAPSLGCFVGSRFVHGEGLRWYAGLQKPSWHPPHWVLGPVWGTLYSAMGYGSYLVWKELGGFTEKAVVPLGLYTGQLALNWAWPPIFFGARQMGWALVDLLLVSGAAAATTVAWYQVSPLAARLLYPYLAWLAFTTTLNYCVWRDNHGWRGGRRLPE
Assay: Displacement of [3H]PK11195 from TSPO in human U-87 MG cells after 1 hr by liquid scintillation counting analysis
Assay type: cell-based
quantity_kind: Ki (nM)
Report as a plain number; the unit nM is understood.

Ask: Query the reported Ki for Translocator protein (Homo sapiens, UniProt P30536); item: CN(C(=O)Cn1c(=O)oc2ccc(-c3cccnc3)cc21)c1ccc(C(F)(F)F)cc1
Reply: 8

* * *

Recorded remaining at 0.5 h, 1 µM by entry
Assay: Metabolic stability in rat liver S9 fraction assessed as compound remaining at 1 uM after 30 mins in presence of NADPH
Type: ADME, subcellular
Conditions: read-out: Stability
Report as a plain number; the unit % is understood.

Use the examples below as a reference point.
>>> print(df.to_string())
                        structure_as_smiles             quantity_kind  unit_string  assay_value
0  CCN(C(=O)Cn1c(=O)oc2ccc(-c3cccnc3)cc21)c1ccccc1  remaining at 0.5 h, 1 µM            %            0
1  CN(C(=O)Cn1c(=O)oc2ccc(-c3ccncc3)cc21)c1ccc(C(F)(F)F)cc1  remaining at 0.5 h, 1 µM            %           35
2  CCN(C(=O)Cn1c(=O)oc2ccc(-c3ccncc3)cc21)c1ccccc1  remaining at 0.5 h, 1 µM            %           24
3  COc1ccc(N(C)C(=O)Cn2c(=O)oc3ccc(-c4cccnc4)cc32)cc1  remaining at 0.5 h, 1 µM            %            9

Attention now turns to another entry.
Ask: Which value of remaining at 0.5 h, 1 µM has been reported for CN(C(=O)Cn1c(=O)oc2ccc(-c3ccc(OC(F)(F)F)cc3)cc21)c1cccnc1 in the records?
Reply: 32

* * *

Target: Translocator protein (Rattus norvegicus)
Sequence (P16257 whole entry, looked up): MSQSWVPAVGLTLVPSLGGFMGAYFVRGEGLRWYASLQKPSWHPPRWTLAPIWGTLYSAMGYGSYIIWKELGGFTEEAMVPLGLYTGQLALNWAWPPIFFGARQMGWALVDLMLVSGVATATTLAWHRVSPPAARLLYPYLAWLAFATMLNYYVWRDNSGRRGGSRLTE
Values of Ki strictly less than 7 nM map to TRUE, and values of at least 7 nM map to FALSE.

Past entries and their recorded results:
>>> df
                        structure_as_smiles                           measured_target    cat
0  CN(C(=O)Cn1c(=O)oc2ccc(-c3ccc(OC(F)(F)F)cc3)cc21)c1cccnc1  Translocator protein (Rattus norvegicus)   TRUE
1  CCN(C(=O)Cn1c(=O)oc2ccc(-c3ccncc3)cc21)c1ccccc1  Translocator protein (Rattus norvegicus)   TRUE
2  CN(C(=O)Cn1c(=O)oc2ccc(-c3ccncc3)cc21)c1ccc(C(F)(F)F)cc1  Translocator protein (Rattus norvegicus)   TRUE
3  CN(C(=O)Cn1c(=O)oc2ccc(-c3cccnc3)cc21)c1ccc(OC(F)(F)F)cc1  Translocator protein (Rattus norvegicus)  FALSE
4  COc1ccc(N(C)C(=O)Cn2c(=O)oc3ccc(-c4ccncc4)cc32)cc1  Translocator protein (Rattus norvegicus)  FALSE

Okay, next one:
Ask: Is 7 nM strictly greater than the compound's reported Ki? compound: CN(C(=O)Cn1c(=O)oc2ccc(-c3cccnc3)cc21)c1ccc(C(F)(F)F)cc1
Reply: FALSE

* * *

Recorded solubility by entry
Assay: Solubility of the compound at pH 7.4 by HPLC analysis
Format: physicochemical
Details: buffer
Report as a plain number; the unit µg/mL is understood.

>>> print(df.to_string())
                        structure_as_smiles  assay_value
0  CN(C(=O)Cn1c(=O)oc2ccc(-c3ccccc3)cc21)c1ccccn1            1
1  CN(C(=O)Cn1c(=O)oc2ccc(-c3cccnc3)cc21)c1ccccc1            5
2  CN(C(=O)Cn1c(=O)oc2ccc(-c3cccnc3)cc21)c1ccc(C(F)(F)F)cc1            1
3  CCN(C(=O)Cn1c(=O)oc2ccc(-c3ccncc3)cc21)c1ccccc1            2
4  CN(C(=O)Cn1c(=O)oc2ccc(-c3ccncc3)cc21)c1ccccc1            1

Attention now turns to another entry.
Ask: Which value of solubility has been reported for CN(C(=O)Cn1c(=O)oc2ccc(-c3ccncc3)cc21)c1ccc(C(F)(F)F)cc1 in the records?
Reply: 3

* * *

Assay: Displacement of [3H]batrachotoxin from rat brain sodium channel site 2
Assay type: tissue-based
pIC50: −log10 of the molar value.
Recorded pIC50 by entry

Use the examples below as a reference point.
>>> print(df.to_string())
                        structure_as_smiles  quantity_kind  assay_value
0  CN(C(=O)Cn1c(=O)oc2ccc(-c3ccc(OC(F)(F)F)cc3)cc21)c1cccnc1          pIC50         6.15
1  CN(C(=O)Cn1c(=O)oc2ccc(-c3ccccc3)cc21)c1cccnc1          pIC50       < 6.00
2  CN(C(=O)Cn1c(=O)oc2ccc(-c3cccnc3)cc21)c1ccc(OC(F)(F)F)cc1          pIC50       < 6.00

Ask: Which value of pIC50 has been reported for CN(C(=O)Cn1c(=O)oc2ccc(-c3cccnc3)cc21)c1ccc(C(F)(F)F)cc1 in the records?
Reply: < 5.00

* * *

Species on record: Rattus norvegicus
Test: Displacement of [3H]flumazenil from Sprague-Dawley rat cerebral cortex CBR at 10 uM after 1 hr by liquid scintillation counting analysis
Format: tissue-based
quantity_kind: inhibition (%)
Report as a plain number; the unit % is understood.

In [3]: df
Out[3]:
                        structure_as_smiles  quantity_kind  unit_string  assay_value
0  CN(C(=O)Cn1c(=O)oc2ccc(-c3cccnc3)cc21)c1ccc(C(F)(F)F)cc1     inhibition            %            0
1  CN(C(=O)Cn1c(=O)oc2ccc(-c3cccnc3)cc21)c1ccc(OC(F)(F)F)cc1     inhibition            %            0
2  CCN(C(=O)Cn1c(=O)oc2ccc(-c3ccncc3)cc21)c1ccccc1     inhibition            %            5
3  CN(C(=O)Cn1c(=O)oc2ccc(-c3ccc(OC(F)(F)F)cc3)cc21)c1cccnc1     inhibition            %            0
4  COc1ccc(N(C)C(=O)Cn2c(=O)oc3ccc(-c4ccncc4)cc32)cc1     inhibition            %            2

Attention now turns to another entry.
Ask: Which value of inhibition has been reported for CN(C(=O)Cn1c(=O)oc2ccc(-c3ccc(C(F)(F)F)cc3)cc21)c1cccnc1 in the records?
Reply: 6
